Kindly state TGI for each of the entries shown.
system: SK-MEL-2 melanoma; test: NCI tumour cell line growth inhibition, 48 h
Report only the number, with the unit µM understood.

Task item: Complete the entry with TGI for `CCOC(=O)CNC(=O)NC12CC3CC(CC(C3)C1)C2`
Reply: 372

Task item: Complete the entry with TGI for `CCCCCCCCSC1=C(Cl)C(=O)C(OC)=C(OC)C1=O`
Reply: 30.9

* * *

system: MALME-3M melanoma; test: NCI tumour cell line growth inhibition, 48 h
MEASURED_PARAMETER: TGI

Task item: Complete the entry with TGI for O=C(CC(=O)Nc1ccccc1)NNC(Sc1ccccc1)c1cc(N=Nc2ccc(Br)cc2)ccc1O (centres undefined)
Reply: > 10 µM

Task item: Complete the entry with TGI for `CC(C)(C)N=C(N)NC#N`
Reply: > 100 µM

Task item: Complete the entry with TGI for COC(=N)c1csc(C2OC(CO)C(O)C2O)n1 (centres undefined)
Reply: > 100 µM

Task item: Complete the entry with TGI for `O=[N+]([O-])c1cc2oc(CSc3ccccc3)nc2cc1Cl`
Reply: > 100 µM

* * *

tested on: CAKI-1 renal; experiment: NCI tumour cell line growth inhibition, 48 h
Where a SMILES comes first, the peptide text is derived from it. The star is where a group is joined. Palmitoyl = CCCCCCCCCCCCCCCC(=O)*
MEASURED_PARAMETER: TGI

Task item: Complete the entry with TGI for CCCCCCCCCCCCCCCC(=O)N1CCCC1C(=O)NCC(=O)NC(Cc1ccccc1)C(=O)N1CCCC1C(=O)NC(CO)C(=O)NC(Cc1ccc(O)cc1)C(=O)NC(CCCCN)C(=O)NC(CC(C)C)C(=O)NC(CCCN=C(N)N)C(=O)N1CCCC1C(=O)NCC(N)=O (centres undefined) (Palmitoyl-PGFPSYKLRPG-NH2; configuration not given here)
Reply: 50.6 µM

Task item: Complete the entry with TGI for `COc1ccc(-c2nc3ccccc3c(=S)n2OC(C)=O)cc1`
Reply: > 25 µM

Task item: Complete the entry with TGI for CCOc1c(OC)cc(-c2nc3n(n2)C(=O)C(CC)S3)cc1OC (centres undefined)
Reply: > 10 µM

Task item: Complete the entry with TGI for C[C@@H]1CCC2[C@@H](C)[C@@H](O[C@H]3O[C@@H]4O[C@@]5(C)CCC6[C@H](C)CCC([C@H]3C)[C@]64OO5)O[C@@H]3O[C@@]4(C)CCC1[C@@]23OO4 (some centres undefined)
Reply: > 25 µM

* * *

system: OVCAR-5 ovarian; test: NCI tumour cell line growth inhibition, 48 h
Kindly state TGI for each of the entries shown.

Task item: Complete the entry with TGI for `CC12c3c4ccc(C=O)c3Oc3ccc(C=O)c(c31)Oc1ccc(C=O)c(c12)O4`
Reply: > 25 µM

Task item: Complete the entry with TGI for `CC1=C(C(=O)Nc2ccccc2)C(c2ccc(Cl)c(Cl)c2)C(C(=O)Nc2ccccc2)=C(C)N1`
Reply: 32.4 µM

Task item: Complete the entry with TGI for `CC12c3ccccc3C(OC=O)(c3ccccc31)C1(C)c3ccccc3C2(OC=O)c2ccccc21`
Reply: > 100 µM

Task item: Complete the entry with TGI for CC[C@]1(O)C[C@H]2CN(CCc3c([nH]c4ccccc34)C(C(=O)OC)(c3cc4c(cc3OC)N(C)[C@H]3[C@@](O)(C(=O)OC)[C@H](OC(C)=O)[C@]5(CC)[C@@H]6C[C@@H]6CN6CC[C@]43[C@@H]65)C2)C1 (stereo partly drawn)
Reply: > 6.67 µM

Task item: Complete the entry with TGI for COc1ccc(N2C(=O)C3c4[nH]c5cc(C)ccc5c4C4CCC(C(C)(C)C)CC4C3C2=O)cc1 (stereo not drawn)
Reply: > 10 µM

Task item: Complete the entry with TGI for `C[N+](C)(C)CC(=O)N/N=C(/Cc1cc(=O)oc2cc(O)ccc12)C(=O)Nc1ccc(Cl)cc1`
Reply: > 100 µM

Task item: Complete the entry with TGI for `CC(C)(C)N=C(N)NC#N`
Reply: > 100 µM

Task item: Complete the entry with TGI for Cc1ccc(/C=C2/N=C(N/N=C\C(O)C(O)C(O)C(O)CO)NC2=O)cc1 (stereo not drawn)
Reply: > 100 µM
